tested_on: M17 leucyl aminopeptidase (Plasmodium falciparum 3D7)
test: Inhibition of P. falciparum M17 aminopeptidase – biochemical, QFRET, counter-screen for PfM18AAP inhibitor project, dose response (AID 588679)
condition_info: recombinant PfM17LAP, H-Leu-NHMec fluorogenic cleavage
# IC50 annotations

Some solved cases for reference:
# compound, IC50
measured = [
    ("Nc1cc(C(=O)c2ccccc2)ccc1O", "31.4 µM"),
    ("CCOc1cccc(-c2nc(-c3ccc(O)c(O)c3)cs2)c1", "23.5 µM"),
    ("CN(CCc1ccc(O)c(O)c1)c1ccnc2ccccc12", "18 µM"),
    ("Oc1ccc(CCNc2ccc3ccccc3c2)cc1O", "39.7 µM"),
    ("O=S1(=O)c2ccccc2-c2cc(-c3nc(-c4ccc(O)c(O)c4)[nH]c3-c3ccccc3)ccc21", "20 µM"),
]

Enquiry: What IC50 value was documented for this compound, `Oc1ccc(CCNc2c3c(nc4ccccc24)CCCC3)cc1O` ?
Return: 61.8 µM

Enquiry: What measured IC50 goes with `Cc1ccc(-c2nc(-c3ccc(O)c(O)c3)cs2)cc1` ?
Return: 21.1 µM

Enquiry: Requested field: IC50. Item: `O=C1OCCN1CCc1nc(-c2ccc(O)c(O)c2)cs1`
Return: 37 µM

* * *

tested_on: M17 leucyl aminopeptidase (Plasmodium falciparum 3D7)
test: Inhibition of P. falciparum M17 aminopeptidase – biochemical, QFRET, counter-screen for PfM18AAP inhibitor project, dose response (AID 588679)
condition_info: recombinant PfM17LAP, H-Leu-NHMec fluorogenic cleavage; at 100 µM (top of the series)
Active and inactive are the calls of the source.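 Rule for the calls: active = inhibition of 30% or more at any tested concentration; inactive = the rest.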
quantity_name: inhibition

# structure_smiles_string, inhibition
measured = [
    ("COc1ccc(CCN(C)c2ccnc3ccccc23)cc1OC", "inactive"),
    ("COc1ccc(CCNc2ccncc2)cc1OC", "inactive"),
    ("COc1ccc(-c2csc(-c3ccccc3)n2)cc1OC", "inactive"),
    ("COc1ccc(CCNC2CCN(Cc3ccccc3)CC2)cc1OC", "inactive"),
    ("O=C(c1ccco1)N1CCN(Cc2cc(=O)c(O)c[nH]2)CC1", "inactive"),
    ("COc1ccc(CCCNc2c3ccccc3nc3ccccc23)cc1OC", "inactive"),
    ("NCc1cc2c3c(c(=O)oc2c(O)c1O)CCC3", "inactive"),
    ("COc1ccc(CCC(=O)O)cc1OC", "inactive"),
]

From here, focus on the item given below.
Enquiry: I have this compound here, `COc1ccc(-c2csc(-c3ccccc3OC)n2)cc1OC` , and I need its recorded inhibition.
Return: inactive

* * *

tested_on: M17 leucyl aminopeptidase (Plasmodium falciparum 3D7)
test: Inhibition of P. falciparum M17 aminopeptidase – biochemical, QFRET, counter-screen for PfM18AAP inhibitor project, dose response (AID 588679)
condition_info: recombinant PfM17LAP, H-Leu-NHMec fluorogenic cleavage
pIC50: −log10 of the molar value.
quantity_name: pIC50

# molecule, quantity_name, obs_value
records = [
    ("Oc1ccc(CCNc2cccc3ccccc23)cc1O", "pIC50", 4.57),
]

1: Cc1c(-c2ccccc2)[nH]c(-c2ccc(O)c(O)c2)[n+]1O
2: Oc1ccc(CCNc2cncc3ccccc23)cc1O
Enquiry: Of 1 and 2 , whose reported pIC50 is the larger number? Return value: the label identifying the chosen record.
Return: 2

P: Cc1nc(NCCc2ccc(O)c(O)c2)c2c3c(sc2n1)CCC3
Q: O=c1cc(CN2CCN(Cc3ccccc3)CC2)c2ccc(O)c(O)c2o1
Enquiry: Thinking about recorded pIC50 values, which is higher, P or Q ? Mark your selection by writing its label.
Return: P

I: Oc1ccc(-c2csc(Cc3cc4ccccc4[nH]3)n2)cc1O
II: O=c1ccc2cc(O)c(O)cc2o1
Enquiry: Form: Entry with minimum pIC50 (choose one): I / II Answer = label.
Return: II
